Target: human Fatty Acid Synthase (Homo sapiens)
Construct: made in house
Sequence (P49327 whole entry): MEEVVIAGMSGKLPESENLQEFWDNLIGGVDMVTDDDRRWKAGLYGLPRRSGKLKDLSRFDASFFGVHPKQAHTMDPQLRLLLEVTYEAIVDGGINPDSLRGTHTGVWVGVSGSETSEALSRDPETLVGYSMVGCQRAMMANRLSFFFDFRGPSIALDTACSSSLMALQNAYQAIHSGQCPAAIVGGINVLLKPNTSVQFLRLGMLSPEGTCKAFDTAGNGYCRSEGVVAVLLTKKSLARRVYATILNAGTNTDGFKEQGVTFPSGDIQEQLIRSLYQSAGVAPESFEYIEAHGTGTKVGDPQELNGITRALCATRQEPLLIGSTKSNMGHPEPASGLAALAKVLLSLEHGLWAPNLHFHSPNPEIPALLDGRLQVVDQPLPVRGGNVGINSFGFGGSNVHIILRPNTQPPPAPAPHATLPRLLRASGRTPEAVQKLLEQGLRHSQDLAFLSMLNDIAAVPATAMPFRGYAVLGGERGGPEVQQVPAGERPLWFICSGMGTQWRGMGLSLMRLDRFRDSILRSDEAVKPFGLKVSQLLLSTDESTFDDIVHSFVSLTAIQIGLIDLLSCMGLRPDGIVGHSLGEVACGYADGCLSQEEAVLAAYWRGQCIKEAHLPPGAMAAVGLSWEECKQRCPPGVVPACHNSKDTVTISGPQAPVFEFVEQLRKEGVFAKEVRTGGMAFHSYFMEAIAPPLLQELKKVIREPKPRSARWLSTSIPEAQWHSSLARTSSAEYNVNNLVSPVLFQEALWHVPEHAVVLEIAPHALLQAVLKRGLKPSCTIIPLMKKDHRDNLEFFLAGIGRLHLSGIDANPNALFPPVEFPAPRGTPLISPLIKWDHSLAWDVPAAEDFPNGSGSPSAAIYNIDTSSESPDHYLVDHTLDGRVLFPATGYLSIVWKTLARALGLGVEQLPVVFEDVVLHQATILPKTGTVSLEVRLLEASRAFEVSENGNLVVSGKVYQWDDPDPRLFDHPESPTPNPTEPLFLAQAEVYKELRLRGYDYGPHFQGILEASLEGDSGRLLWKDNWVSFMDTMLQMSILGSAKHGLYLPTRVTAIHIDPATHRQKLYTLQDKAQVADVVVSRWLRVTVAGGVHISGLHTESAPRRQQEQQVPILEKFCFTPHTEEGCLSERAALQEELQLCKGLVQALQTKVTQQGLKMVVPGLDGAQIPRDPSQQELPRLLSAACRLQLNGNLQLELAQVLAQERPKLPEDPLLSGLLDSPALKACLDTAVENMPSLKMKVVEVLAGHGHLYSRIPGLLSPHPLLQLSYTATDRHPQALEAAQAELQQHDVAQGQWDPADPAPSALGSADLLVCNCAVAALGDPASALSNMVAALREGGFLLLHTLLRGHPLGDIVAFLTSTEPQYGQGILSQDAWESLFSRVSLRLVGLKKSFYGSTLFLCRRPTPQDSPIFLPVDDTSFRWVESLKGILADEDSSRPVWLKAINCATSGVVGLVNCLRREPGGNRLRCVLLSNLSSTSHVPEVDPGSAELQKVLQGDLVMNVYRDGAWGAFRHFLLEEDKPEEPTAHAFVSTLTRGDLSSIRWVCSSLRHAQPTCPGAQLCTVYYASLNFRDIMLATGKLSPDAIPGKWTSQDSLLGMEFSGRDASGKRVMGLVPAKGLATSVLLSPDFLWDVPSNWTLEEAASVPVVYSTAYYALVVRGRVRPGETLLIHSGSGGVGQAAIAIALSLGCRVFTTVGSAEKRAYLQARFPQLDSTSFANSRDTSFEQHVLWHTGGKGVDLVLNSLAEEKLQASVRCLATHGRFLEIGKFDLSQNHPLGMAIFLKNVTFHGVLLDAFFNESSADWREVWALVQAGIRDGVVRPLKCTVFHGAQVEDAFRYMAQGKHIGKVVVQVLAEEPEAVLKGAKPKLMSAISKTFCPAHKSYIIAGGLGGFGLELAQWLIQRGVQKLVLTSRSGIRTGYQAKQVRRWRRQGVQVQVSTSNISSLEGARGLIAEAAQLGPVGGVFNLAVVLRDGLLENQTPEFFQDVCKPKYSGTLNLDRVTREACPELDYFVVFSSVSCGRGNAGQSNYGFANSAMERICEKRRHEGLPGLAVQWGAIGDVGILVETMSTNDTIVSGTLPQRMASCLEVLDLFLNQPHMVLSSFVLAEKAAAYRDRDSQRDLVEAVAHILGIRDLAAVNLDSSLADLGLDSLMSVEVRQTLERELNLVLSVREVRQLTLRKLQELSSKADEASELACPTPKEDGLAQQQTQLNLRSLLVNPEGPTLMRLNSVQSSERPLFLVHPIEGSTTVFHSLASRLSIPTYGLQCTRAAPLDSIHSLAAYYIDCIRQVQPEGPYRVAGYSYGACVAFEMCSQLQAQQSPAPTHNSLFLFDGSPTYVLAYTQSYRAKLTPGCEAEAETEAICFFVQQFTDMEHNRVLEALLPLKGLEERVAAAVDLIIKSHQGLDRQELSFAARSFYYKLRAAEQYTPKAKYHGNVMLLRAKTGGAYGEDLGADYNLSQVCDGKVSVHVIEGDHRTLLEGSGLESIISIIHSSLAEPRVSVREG
Assay: Human FAS enzyme assay (decrease in NADPH fluorescence)
Assay type: biochemical
Conditions: % inhibition at a concentration of 100 μmolar
Source text: Human and Rat FAS Enzyme Assay. Fatty acid synthase is an enzyme complex that harbours seven enzymatic activities catalysing the reductive synthesis of long chain fatty acids from acetyl CoA and malonyl CoA to palmitate. When acetyl CoA and malonyl CoA are forming palmitate NADPH is consumed forming NADP. Since NADPH is fluorescent but not NADP the reaction can be measured by analysing the decrease in fluorescence. […]
measurement_type: inhibition at 100 µM (%)

{"columns": ["compound", "inhibition at 100 µM, %"],
 "data": [
  ["Cc1ccc(C(=O)N2CCC(c3ccc(C#N)cc3)CC2)cc1NC(=O)NCCN1CCCC1=O [Example 176]", 92.6],
  ["Cc1ccc(C(=O)N2CCC(c3ccc(C#N)cc3)CC2)cc1NC(=O)NCc1cccc(S(C)(=O)=O)c1 [Example 247]", 101],
  ["Cc1ccc(C(=O)N2CCC(c3ccc(C#N)cc3)CC2)cc1NC(=O)NCCCN1CCCC1=O [Example 131]", 89.8],
  ["Cc1cc(C)c(C(=O)N2CCC(c3ccc(C#N)cc3)CC2)cc1NC(=O)NC(C)C [Example 13]", 84.8],
  ["Cc1ccc(C(=O)N2CCC(c3ccc(C#N)cc3)CC2)cc1NC(=O)NC1CCN(C(=O)OC(C)(C)C)CC1 [Example 208]", 84.9],
  ["Cc1ccc(C(=O)N2CCC(c3ccc(C#N)cc3)CC2)cc1NC(=O)N[C@@H]1CCCC[C@H]1NS(=O)(=O)N(C)C (relative stereo) [Example 319]", 84.3],
  ["Cc1ccc(C(=O)N2CCC(c3ccc(C#N)cc3)CC2)cc1NC(=O)NC1CCOCC1 [Example 162]", 84.2],
  ["Cc1ccc(C(=O)N2CCC(c3ccc(C#N)cc3)CC2)cc1NC(=O)NCCNC(=O)OC(C)(C)C [Example 102]", 91.9]
]}
